These measurements were taken from patent US20250197368A1.

- target.system: human α2β3γ2 GABAARs (benzodiazepine site) (Homo sapiens (Human), UniProt P18507+P47869)
- Sequence (P47869 29-451): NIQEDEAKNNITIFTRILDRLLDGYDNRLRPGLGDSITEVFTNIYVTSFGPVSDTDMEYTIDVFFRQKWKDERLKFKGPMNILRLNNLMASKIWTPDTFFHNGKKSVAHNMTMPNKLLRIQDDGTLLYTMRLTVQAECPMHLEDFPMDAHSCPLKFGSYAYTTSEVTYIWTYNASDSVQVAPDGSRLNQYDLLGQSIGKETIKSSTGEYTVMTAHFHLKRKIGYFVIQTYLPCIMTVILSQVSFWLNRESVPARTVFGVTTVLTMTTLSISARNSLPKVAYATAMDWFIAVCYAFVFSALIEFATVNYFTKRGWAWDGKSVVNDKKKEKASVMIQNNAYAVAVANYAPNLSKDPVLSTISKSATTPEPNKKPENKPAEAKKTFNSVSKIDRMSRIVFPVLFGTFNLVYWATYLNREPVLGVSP
- Sequence (P28472 26-473 partner): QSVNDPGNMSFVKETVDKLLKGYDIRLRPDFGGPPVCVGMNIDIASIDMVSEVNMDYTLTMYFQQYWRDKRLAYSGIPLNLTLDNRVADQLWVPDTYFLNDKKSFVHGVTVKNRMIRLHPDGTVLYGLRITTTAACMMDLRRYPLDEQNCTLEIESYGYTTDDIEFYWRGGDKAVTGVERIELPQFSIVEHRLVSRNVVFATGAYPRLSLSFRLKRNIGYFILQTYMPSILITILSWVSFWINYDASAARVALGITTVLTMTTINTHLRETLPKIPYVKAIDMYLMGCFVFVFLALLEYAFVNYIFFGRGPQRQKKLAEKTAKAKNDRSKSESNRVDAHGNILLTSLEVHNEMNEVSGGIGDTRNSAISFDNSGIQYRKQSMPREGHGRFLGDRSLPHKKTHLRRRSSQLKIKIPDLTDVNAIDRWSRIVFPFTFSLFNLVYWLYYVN
- Sequence (P18507 40-475): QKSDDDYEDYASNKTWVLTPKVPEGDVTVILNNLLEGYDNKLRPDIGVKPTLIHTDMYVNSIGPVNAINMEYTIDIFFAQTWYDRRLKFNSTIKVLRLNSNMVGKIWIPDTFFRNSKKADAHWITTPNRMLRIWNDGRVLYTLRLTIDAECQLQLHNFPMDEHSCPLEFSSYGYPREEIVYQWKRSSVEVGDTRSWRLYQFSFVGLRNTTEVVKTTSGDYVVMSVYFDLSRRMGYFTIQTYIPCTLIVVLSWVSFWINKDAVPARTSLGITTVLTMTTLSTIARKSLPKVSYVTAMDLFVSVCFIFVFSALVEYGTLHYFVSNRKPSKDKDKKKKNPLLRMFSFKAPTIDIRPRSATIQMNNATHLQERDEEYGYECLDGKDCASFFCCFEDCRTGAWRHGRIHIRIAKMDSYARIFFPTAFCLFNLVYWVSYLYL
- assay.details: In vitro radioligand binding assay ([3H]Ro15-1788 displacement), α2-GABAAR Ki

- chemical.smiles: "CCCNC(=O)c1c(N)c2cccc(-c3cc(OCc4ccc(Cl)cn4)ccc3F)c2[nH]c1=O"
  target.system: "human α2β3γ2 GABAARs (benzodiazepine site) (Homo sapiens (Human), UniProt P18507+P47869)"
  Ki / nM: 0.72
- chemical.smiles: "CCCNC(=O)c1c(N)c2cccc(-c3cc(OCc4cc(CO)ccn4)ccc3F)c2[nH]c1=O"
  target.system: "human α2β3γ2 GABAARs (benzodiazepine site) (Homo sapiens (Human), UniProt P18507+P47869)"
  Ki / nM: 0.7
- chemical.smiles: "CCCNC(=O)c1c(N)c2cccc(-c3cnccc3COC)c2[nH]c1=O"
  target.system: "human α2β3γ2 GABAARs (benzodiazepine site) (Homo sapiens (Human), UniProt P18507+P47869)"
  Ki / nM: 29.8
- chemical.smiles: "CCCNC(=O)c1c(N)c2cccc(-c3nc(CO)ccc3C)c2[nH]c1=O"
  target.system: "human α2β3γ2 GABAARs (benzodiazepine site) (Homo sapiens (Human), UniProt P18507+P47869)"
  Ki / nM: 8.17
- chemical.smiles: "CCCNC(=O)c1c(N)c2cccc(-c3cccc(C(F)F)n3)c2[nH]c1=O"
  target.system: "human α2β3γ2 GABAARs (benzodiazepine site) (Homo sapiens (Human), UniProt P18507+P47869)"
  Ki / nM: 1.99
- chemical.smiles: "CCCNC(=O)c1c(N)c2cccc(-c3nc(OCC)ccc3F)c2[nH]c1=O"
  target.system: "human α2β3γ2 GABAARs (benzodiazepine site) (Homo sapiens (Human), UniProt P18507+P47869)"
  Ki / nM: 0.25
- chemical.smiles: "CCCNC(=O)c1c(N)c2cccc(-c3cnccc3OC)c2[nH]c1=O"
  target.system: "human α2β3γ2 GABAARs (benzodiazepine site) (Homo sapiens (Human), UniProt P18507+P47869)"
  Ki / nM: 1.64
- chemical.smiles: "CCCNC(=O)c1c(N)c2cccc(-c3cc(OCc4nnc(C)o4)ccc3F)c2[nH]c1=O"
  target.system: "human α2β3γ2 GABAARs (benzodiazepine site) (Homo sapiens (Human), UniProt P18507+P47869)"
  Ki / nM: 0.3
- chemical.smiles: "CCCNC(=O)c1c(N)c2cccc(-c3cc(OCc4coc(C)n4)ccc3F)c2[nH]c1=O"
  target.system: "human α2β3γ2 GABAARs (benzodiazepine site) (Homo sapiens (Human), UniProt P18507+P47869)"
  Ki / nM: 0.89
- chemical.smiles: "CCCNC(=O)c1c(N)c2cccc(-c3cc(OCc4cccc(C#N)n4)ccc3F)c2[nH]c1=O"
  target.system: "human α2β3γ2 GABAARs (benzodiazepine site) (Homo sapiens (Human), UniProt P18507+P47869)"
  Ki / nM: 0.46
- chemical.smiles: "CCCNC(=O)c1c(N)c2cccc(-c3cc(OCc4cc(C#N)ccn4)ccc3F)c2[nH]c1=O"
  target.system: "human α2β3γ2 GABAARs (benzodiazepine site) (Homo sapiens (Human), UniProt P18507+P47869)"
  Ki / nM: 0.19
- chemical.smiles: "CCCNC(=O)c1c(N)c2cccc(-c3cnc(C)cc3OC)c2[nH]c1=O"
  target.system: "human α2β3γ2 GABAARs (benzodiazepine site) (Homo sapiens (Human), UniProt P18507+P47869)"
  Ki / nM: 9.77
